pIC50: −log10 of the molar value.
What follows is a collection of pIC50 values obtained with human A2A receptor (Homo sapiens (Human), UniProt P29274).
Sequence (P29274 whole entry): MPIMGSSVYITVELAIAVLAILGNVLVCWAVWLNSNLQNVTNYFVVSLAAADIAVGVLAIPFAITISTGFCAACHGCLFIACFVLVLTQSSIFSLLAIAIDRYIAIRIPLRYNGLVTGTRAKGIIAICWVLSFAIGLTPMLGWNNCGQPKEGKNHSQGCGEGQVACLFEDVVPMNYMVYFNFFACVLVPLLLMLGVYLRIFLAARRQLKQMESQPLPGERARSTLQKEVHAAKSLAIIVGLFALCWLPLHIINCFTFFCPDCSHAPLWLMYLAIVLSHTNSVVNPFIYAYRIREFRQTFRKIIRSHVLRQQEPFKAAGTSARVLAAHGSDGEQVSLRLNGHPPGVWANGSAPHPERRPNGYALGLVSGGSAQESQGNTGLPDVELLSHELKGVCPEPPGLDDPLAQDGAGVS
measured_property: pIC50

1) Fc1cnccc1-c1nnc(Nc2nc(Cl)cs2)nc1-c1cccnc1; 5.48
2) Fc1cccc(Nc2nnc(-c3ccncc3F)c(-c3ccccc3F)n2)c1; 4.49

###

assay_target: human A1 receptor (Homo sapiens (Human))
Sequence (P30542 whole entry): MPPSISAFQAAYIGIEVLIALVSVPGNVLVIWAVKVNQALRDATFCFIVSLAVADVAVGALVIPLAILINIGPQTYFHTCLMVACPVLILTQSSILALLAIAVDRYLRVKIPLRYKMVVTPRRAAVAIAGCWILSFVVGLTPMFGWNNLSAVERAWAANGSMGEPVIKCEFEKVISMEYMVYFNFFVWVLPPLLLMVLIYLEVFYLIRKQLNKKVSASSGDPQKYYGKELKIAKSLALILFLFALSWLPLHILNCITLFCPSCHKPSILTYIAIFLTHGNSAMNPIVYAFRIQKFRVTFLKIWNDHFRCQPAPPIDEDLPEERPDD
assay: Radioligand binding competition assay, [3H]-DPCPX, membranes from CHO-K1 cells transfected with human A1 receptor
Use 6 as the dividing line for Human A1 Receptor pKi, with the line itself on the Criterion met side and lower values as Criterion not met.

1. CCc1n[nH]c(Nc2nnc(-c3ccncc3F)c(-c3ccccc3F)n2)n1; Criterion not met
2. Fc1cnccc1-c1nnc(Nc2ccc(C(F)(F)F)nc2)nc1-c1ccccc1F; Criterion not met
3. Fc1cnccc1-c1nnc(Nc2cccnc2)nc1-c1cccnc1; Criterion not met
4. Cc1n[nH]c(Nc2nnc(-c3ccncc3F)c(-c3ccccc3F)n2)n1; Criterion met
5. CNC(=O)Nc1nnc(-c2ccncc2F)c(-c2ccccc2F)n1; Criterion not met
6. Fc1cnccc1-c1nnc(Nc2nc(C3CC3)n[nH]2)nc1-c1ccccc1F; Criterion not met
7. OCc1ncc(Nc2nnc(-c3ccncc3F)c(-c3ccccc3F)n2)cn1; Criterion met
8. Fc1cccc(Nc2nnc(-c3ccncc3F)c(-c3cccnc3)n2)c1; Criterion not met
9. CC(C)(O)c1ccc(Nc2nnc(-c3ccncc3F)c(-c3ccccc3F)n2)cn1; Criterion met
